Ref: ChEMBL document CHEMBL1833824

assay: Activation of human alpha-9/rat alpha-10 nACHR expressed in Xenopus oocytes assessed as increase of acetylcholine-induced current; format: cell-based; details: Oocyte
pEC50: −log10 of the molar value.
Recorded endpoint: pEC50

Structure notation | Recorded endpoint | Quantitative readout
CC(=O)OCC[N+](C)(C)C | pEC50 | 4.30
